Recorded values, source PubChem BioAssay (NCI).

# System: NCI-H226 lung
# method: NCI tumour cell line growth inhibition, 48 h; in the data active means GI50 below about 0.43 µM; inactive means the rest
Response enum: active, inactive

Solved cases below.
| smiles-text | group-label |
| --- | --- |
| COc1ccc(/C=C/C(=O)c2cc3c(N)c(C(=O)Nc4cccc(Cl)c4C)sc3nc2C)cc1 | active |
| Cn1ccc(=O)c2c(O)c3ccccc3c(O)c21 | inactive |
| Clc1ccc(OCc2nn3c(CCCCc4nnc5sc(COc6ccc(Cl)cc6Cl)nn45)nnc3s2)c(Cl)c1 | inactive |
| O=C(COc1nc2ccccc2nc1-c1ccccc1)Nc1ccc(Cl)cc1 | inactive |
| O=c1c2cc(F)ccc2sc2c(Nc3ccncc3)nc3ccccc3c12 | inactive |

Identify the outcome logged in this assay for the compound shown: `c1ccc2cc(C[n+]3ccn(CCCCCCCCCCCCn4cc[n+](Cc5ccc6ccccc6c5)c4)c3)ccc2c1`
inactive

Identify the outcome logged in this assay for the compound shown: `O=C1Nc2ccccc2/C1=C\c1c(Cl)nc2sccn12`
inactive

Identify the outcome logged in this assay for the compound shown: `O=C1C=CC(=O)c2cc3cc(CO)ccc3cc21`
inactive

Identify the outcome logged in this assay for the compound shown: `CCN(CC)Cc1cc(Nc2c3ccc(Cl)cc3nc3ccc(OC)cc23)ccc1O`
inactive

Identify the outcome logged in this assay for the compound shown: `N#Cc1c(-c2ccccc2)cc(-c2ccccc2)n(CCCC(=O)NO)c1=O`
inactive

Identify the outcome logged in this assay for the compound shown: `COc1cc2c(cc1OCCCCCn1c(-c3ccc(OCc4ccccc4)cc3)nc3cc(N4CCOCC4)ccc31)N=C[C@@H]1CCCN1C2=O`
inactive

Identify the outcome logged in this assay for the compound shown: `C#CCn1cnc2cnc(Nc3cccc(NC(=O)CCl)c3)nc21`
inactive

Identify the outcome logged in this assay for the compound shown: `CC(C)=CCC/C(C)=C/CC/C(C)=C/CC/C(C)=C/CSC[C@H](NC(=O)CCCCCN1CCN(C)CC1)C(=O)NC1CCCCC1`
inactive

Identify the outcome logged in this assay for the compound shown: `CN(C)c1cc[n+](/C(NS(=O)(=O)c2cc(C(=O)Nc3ccc(Cl)cc3)c(Cl)cc2[S-])=C(\C#N)C(=O)c2ccccc2)cc1`
inactive
